pIC50: −log10 of the molar value.
Parameter 'readout' = pIC50; parameter 'system' = CHK-1 kinase (Homo sapiens (Human)).

{"Compound": "N#Cc1cnc(Nc2cc(-c3cc4ccccc4cc3OCCN)[nH]n2)cn1", "pIC50": 7.80}
{"Compound": "N#Cc1cnc(Nc2cc(-c3ccccc3OCC3CCCNC3)on2)cn1 (stereo not drawn)", "pIC50": 8.11}
{"Compound": "N#Cc1cnc(Nc2cc(-c3ccccc3OCCCN)on2)cn1", "pIC50": 8.11}
{"Compound": "N#Cc1cnc(Nc2cc(-c3ccccc3OCC3CCNCC3)on2)cn1", "pIC50": 7.88}
{"Compound": "N#Cc1cnc(Nc2cc(-c3ccccc3OCCCCN)on2)cn1", "pIC50": 7.91}
{"Compound": "N#Cc1cnc(Nc2cc(-c3cc4ccccc4cc3OCC3CNCCO3)[nH]n2)cn1 (stereo not drawn)", "pIC50": 8.09}

###

Reported inhibition at 0.3 µM values are given for each entry in this list.
Assay System: CHK-1 kinase (Homo sapiens (Human), UniProt O14757)
Sequence (O14757 whole entry): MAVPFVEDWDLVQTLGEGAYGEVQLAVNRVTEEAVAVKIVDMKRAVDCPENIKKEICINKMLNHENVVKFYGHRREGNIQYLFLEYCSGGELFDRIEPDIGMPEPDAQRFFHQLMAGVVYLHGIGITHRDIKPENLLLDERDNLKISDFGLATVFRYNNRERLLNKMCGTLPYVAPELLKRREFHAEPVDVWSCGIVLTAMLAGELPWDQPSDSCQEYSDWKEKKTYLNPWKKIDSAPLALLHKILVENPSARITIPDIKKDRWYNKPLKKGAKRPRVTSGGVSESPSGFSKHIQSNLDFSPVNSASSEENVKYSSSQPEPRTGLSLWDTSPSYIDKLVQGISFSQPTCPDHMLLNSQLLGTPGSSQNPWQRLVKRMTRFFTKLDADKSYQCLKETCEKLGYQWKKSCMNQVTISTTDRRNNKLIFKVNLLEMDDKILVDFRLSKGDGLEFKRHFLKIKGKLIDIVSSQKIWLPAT
Protocol Description: CHK-1 % inhibition kinase assay (TR-FRET)
Format: biochemical
Experimental Context: CHK1 enzyme, compound 300 nM, ATP 15 μM

{"Compound": "N#Cc1cnc(Nc2cc(-c3ccccc3OCC3CCNC3)on2)cn1 (stereo not shown) [Compound 1.23]", "inhibition at 0.3 µM": "99%"}
{"Compound": "N#Cc1cnc(Nc2cc(-c3cc4ccccc4cc3OCC3CCNCC3)[nH]n2)cn1 [Compound 2.1]", "inhibition at 0.3 µM": "91%"}
{"Compound": "N#Cc1cnc(Nc2cc(-c3ccccc3OCCN)on2)cn1 [Compound 1.7]", "inhibition at 0.3 µM": "82%"}
{"Compound": "N#Cc1cnc(Nc2cc(-c3cc4ccccc4cc3OCC3CNC3)[nH]n2)cn1 [Compound 2.2]", "inhibition at 0.3 µM": "96%"}
